# target entity: Brd2(BD1) (Homo sapiens)
# Construct: GST tagged bromodomain proteins were purchased from BPS Bioscience; purchased BPS Bioscience
# Sequence (P25440 74-180 limits assumed): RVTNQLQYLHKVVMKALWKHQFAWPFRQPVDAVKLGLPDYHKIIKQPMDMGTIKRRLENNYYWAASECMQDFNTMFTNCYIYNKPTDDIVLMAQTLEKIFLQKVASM
# measurement notes: HTRF BET selectivity profile, Brd2(BD1)
# Assay type: binding
# assay conditions: selectivity Brd2(BD1) vs Brd2(BD2), HTRF IC50
Each entry falls into one class according to its Ratio 2-1 vs 2-2; the ranges are A = under 2, B = from 2 up to 5, C = 5 and over

- compound: "O=C1CCCc2cc(S(=O)(=O)NCC3CCC(C(=O)NCCc4cccs4)CC3)ccc2N1 (single isomer, unassigned) [Compound 5b]"
  target entity: "Brd2(BD1) (Homo sapiens)"
  label value: "C"
- compound: "Cc1noc(C)c1CCNC(=O)c1ccc(CNS(=O)(=O)c2ccc3c(c2)CCCC(=O)N3)cc1 [Compound 16a]"
  target entity: "Brd2(BD1) (Homo sapiens)"
  label value: "C"
- compound: "CCn1c(CSc2nc3nc(C)cc(C)n3n2)nc2c1c(=O)[nH]c(=O)n2Cc1ccc(CNS(=O)(=O)c2ccc3c(c2)CCCC(=O)N3)cc1 [Compound 32b]"
  target entity: "Brd2(BD1) (Homo sapiens)"
  label value: "A"
- compound: "CCn1cnc2c1c(=O)[nH]c(=O)n2Cc1ccc(CNS(=O)(=O)c2ccc(OC3CCCCC3)cc2)cc1 [Compound 43a]"
  target entity: "Brd2(BD1) (Homo sapiens)"
  label value: "C"
- compound: "CCn1cnc2c1c(=O)[nH]c(=O)n2Cc1ccc(CNS(=O)(=O)c2ccc(OC3CCOCC3)cc2)cc1 [Compound 43b]"
  target entity: "Brd2(BD1) (Homo sapiens)"
  label value: "C"
- compound: "CCCCc1c(C)nc2nc(SCc3nc4c(c(=O)[nH]c(=O)n4Cc4ccc(CNS(=O)(=O)c5ccc6c(c5)CCCC(=O)N6)cc4)n3CC)nn2c1C [Compound 32c]"
  target entity: "Brd2(BD1) (Homo sapiens)"
  label value: "A"
- compound: "O=C1CCCc2cc(S(=O)(=O)C3CCC(C(=O)NCCc4ccccn4)CC3)ccc2N1 (stereo not drawn) [Compound 7a]"
  target entity: "Brd2(BD1) (Homo sapiens)"
  label value: "A"
- compound: "CCn1cnc2c1c(=O)[nH]c(=O)n2Cc1ccc(CNS(=O)(=O)c2cccc(-c3ccccc3)c2)cc1 [Compound 29c]"
  target entity: "Brd2(BD1) (Homo sapiens)"
  label value: "B"
- compound: "CCn1cnc2c1c(=O)[nH]c(=O)n2Cc1ccc(CNS(=O)(=O)c2cc3ccccc3s2)cc1 [Compound 25b]"
  target entity: "Brd2(BD1) (Homo sapiens)"
  label value: "C"
- compound: "CCn1cnc2c1c(=O)[nH]c(=O)n2Cc1ccc(CNS(=O)(=O)c2ccc(Oc3ccccc3)cc2)cc1 [Compound 30c]"
  target entity: "Brd2(BD1) (Homo sapiens)"
  label value: "B"
- compound: "CCn1cnc2c1c(=O)[nH]c(=O)n2Cc1ccc(CNS(=O)(=O)c2ccc3scnc3c2)cc1 [Compound 25c]"
  target entity: "Brd2(BD1) (Homo sapiens)"
  label value: "C"
